System: HeLa cells
Assay Overview: [3H]Adenosine uptake functional cellular assay
Type: cell-based
Test Parameters: Homo sapiens, HeLa, accumulation of [3H]adenosine into HeLa cells; compound range 10 μM to […]; read-out: Adenosine uptake inhibition IC50
Observed Property: IC50 (nM)

{"columns": ["Compound", "Target Or Test System", "Experimental Value"],
 "data": [
  ["Nc1nccn2c([C@@H]3CC[C@H]4CCC(=O)N4C3)nc(-c3ccc(C(=O)Nc4cc(C(F)(F)F)ccn4)cc3OC3CCCC3)c12 [Example 141]", "HeLa cells", 824]
]}

[I] COc1cc(C(=O)Nc2cc(C(F)(F)F)ccn2)cc(F)c1-c1nc([C@@H]2CC[C@H]3CCC(=O)N3C2)n2ccnc(N)c12 [Example 134]
[II] Nc1nccn2c([C@H]3CC[C@@H]4C[C@H](O)C(=O)N4C3)nc(-c3ccc(C(=O)Nc4cc(C(F)(F)F)ccn4)cc3)c12 [Example 58]
[III] Cc1cc(C(=O)Nc2cc(C(F)(F)F)ccn2)c(F)cc1-c1nc([C@@H]2CC[C@H]3CCC(=O)N3C2)n2c(Cl)cnc(N)c12 [Example 197]
Given 3 compounds, produce a descending ranking by IC50. Provide your answer as the labels ordered per the instruction.
I, II, III
(I: 1600 nM, II: 811 nM, III: 199 nM)

[A] N#Cc1cc(C(=O)Nc2cc(C(F)(F)F)ccn2)ccc1-c1nc([C@@H]2CC[C@H]3CCC(=O)N3C2)n2ccnc(N)c12 [Example 123]
[B] Nc1nccn2c([C@@H]3CC[C@H]4CNCC(=O)N4C3)nc(-c3ccc(C(=O)Nc4cc(C(F)(F)F)ccn4)cc3)c12 [Example 40]
// returns A or B , whichever has the lower IC50 Please respond with the label that marks your chosen entry.
B
